Assay: Solubility of antineoplastic drugs in biocompatible pharmaceutical solvents
Details: Tween-80, 120 °C, organic solvent or mixture
measured.parameter: solubility

Lab note: measured solubility of CC(=O)O[C@@]12CO[C@@H]1C[C@H](O)[C@@]1(C)C(=O)[C@H](O)C3=C(C)[C@@H](OC(=O)[C@H](O)[C@@H](NC(=O)OC(C)(C)C)c4ccccc4)C[C@@](O)([C@@H](OC(=O)c4ccccc4)[C@H]21)C3(C)C [Docetaxel] was > 40 mg/mL

---

Assay: Solubility of antineoplastic drugs in biocompatible pharmaceutical solvents
Settings: Medium Chain Triglycerides, 105 °C, oil or lipid
measured.parameter: solubility

Lab note: measured solubility of CC(=O)O[C@@]12CO[C@@H]1C[C@H](O)[C@@]1(C)C(=O)[C@H](O)C3=C(C)[C@@H](OC(=O)[C@H](O)[C@@H](NC(=O)OC(C)(C)C)c4ccccc4)C[C@@](O)([C@@H](OC(=O)c4ccccc4)[C@H]21)C3(C)C [Docetaxel] was 30 to 35 mg/mL
